These data points were gathered from ChEMBL document CHEMBL4152379.

system_name: Transient receptor potential cation channel subfamily A member 1 (Homo sapiens)
Sequence (O75762 whole entry): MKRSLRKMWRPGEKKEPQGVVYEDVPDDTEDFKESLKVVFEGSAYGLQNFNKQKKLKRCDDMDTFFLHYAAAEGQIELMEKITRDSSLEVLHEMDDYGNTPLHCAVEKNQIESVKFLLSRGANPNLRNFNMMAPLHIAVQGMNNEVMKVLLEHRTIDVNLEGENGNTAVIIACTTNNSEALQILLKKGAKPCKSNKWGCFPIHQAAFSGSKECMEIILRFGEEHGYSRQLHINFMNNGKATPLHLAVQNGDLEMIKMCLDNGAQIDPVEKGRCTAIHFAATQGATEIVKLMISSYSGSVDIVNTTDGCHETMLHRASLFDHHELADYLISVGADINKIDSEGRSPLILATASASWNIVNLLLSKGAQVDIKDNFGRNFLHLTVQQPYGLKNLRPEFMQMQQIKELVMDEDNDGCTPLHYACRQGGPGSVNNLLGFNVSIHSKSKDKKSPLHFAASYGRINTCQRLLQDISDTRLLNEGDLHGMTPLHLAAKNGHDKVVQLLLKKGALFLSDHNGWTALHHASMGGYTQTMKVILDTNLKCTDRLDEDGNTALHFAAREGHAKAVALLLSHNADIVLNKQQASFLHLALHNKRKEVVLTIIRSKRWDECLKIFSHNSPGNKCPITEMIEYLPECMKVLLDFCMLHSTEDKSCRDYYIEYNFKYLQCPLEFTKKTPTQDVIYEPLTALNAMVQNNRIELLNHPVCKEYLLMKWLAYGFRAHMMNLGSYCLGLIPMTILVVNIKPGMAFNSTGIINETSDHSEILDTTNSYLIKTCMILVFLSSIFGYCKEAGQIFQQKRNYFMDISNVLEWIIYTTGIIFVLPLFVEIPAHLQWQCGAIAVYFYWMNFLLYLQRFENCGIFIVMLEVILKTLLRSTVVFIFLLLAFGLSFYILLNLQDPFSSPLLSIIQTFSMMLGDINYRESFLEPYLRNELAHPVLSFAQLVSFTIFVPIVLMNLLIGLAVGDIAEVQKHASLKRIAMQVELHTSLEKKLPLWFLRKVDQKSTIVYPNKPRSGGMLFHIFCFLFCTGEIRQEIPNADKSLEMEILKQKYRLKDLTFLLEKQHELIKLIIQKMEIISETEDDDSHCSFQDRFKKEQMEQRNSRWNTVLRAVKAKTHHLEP
pIC50: −log10 of the molar value.
metric: pIC50

Ask: Which measured pIC50 value corresponds to N#Cc1ccc(O[C@H]2CN(S(=O)(=O)c3ccc(Cl)cc3Cl)C[C@@]2(O)CO)cc1F ?
Result: < 5.00

* * *

system_name: UniProt Q7Z2W7
Sequence (Q7Z2W7 whole entry): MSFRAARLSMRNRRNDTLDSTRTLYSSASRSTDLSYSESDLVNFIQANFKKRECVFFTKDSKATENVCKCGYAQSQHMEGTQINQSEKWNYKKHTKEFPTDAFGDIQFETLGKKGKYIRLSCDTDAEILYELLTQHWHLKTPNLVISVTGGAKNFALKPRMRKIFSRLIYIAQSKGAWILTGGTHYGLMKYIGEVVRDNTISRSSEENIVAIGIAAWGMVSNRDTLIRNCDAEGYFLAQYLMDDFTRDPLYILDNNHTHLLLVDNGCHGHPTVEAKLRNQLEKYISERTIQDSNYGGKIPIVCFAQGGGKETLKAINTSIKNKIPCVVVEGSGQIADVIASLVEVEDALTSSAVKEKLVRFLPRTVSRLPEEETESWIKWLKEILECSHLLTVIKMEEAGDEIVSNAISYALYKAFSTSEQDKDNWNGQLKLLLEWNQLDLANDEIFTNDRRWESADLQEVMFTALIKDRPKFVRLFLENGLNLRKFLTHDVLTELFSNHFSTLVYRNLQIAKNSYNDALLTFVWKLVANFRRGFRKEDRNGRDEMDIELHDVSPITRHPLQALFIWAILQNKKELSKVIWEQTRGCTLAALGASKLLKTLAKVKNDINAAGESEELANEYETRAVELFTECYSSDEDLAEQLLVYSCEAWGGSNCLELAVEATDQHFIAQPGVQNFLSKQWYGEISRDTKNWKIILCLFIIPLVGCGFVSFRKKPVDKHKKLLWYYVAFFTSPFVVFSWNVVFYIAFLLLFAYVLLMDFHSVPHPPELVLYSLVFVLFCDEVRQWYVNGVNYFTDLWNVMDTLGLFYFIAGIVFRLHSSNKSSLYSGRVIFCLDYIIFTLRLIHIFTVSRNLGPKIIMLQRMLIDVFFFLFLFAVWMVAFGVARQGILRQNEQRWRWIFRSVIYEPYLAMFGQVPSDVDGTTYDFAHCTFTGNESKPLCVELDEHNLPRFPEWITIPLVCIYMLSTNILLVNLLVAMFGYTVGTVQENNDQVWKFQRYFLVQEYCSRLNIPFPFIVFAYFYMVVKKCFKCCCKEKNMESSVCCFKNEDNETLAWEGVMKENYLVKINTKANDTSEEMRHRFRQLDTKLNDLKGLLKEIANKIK
metric: IC50

Ask: Which measured IC50 value corresponds to N#Cc1ccc(O[C@H]2CN(S(=O)(=O)c3ccc(Cl)cc3Cl)C[C@@]2(O)CO)cc1F ?
Result: > 10 µM

* * *

system_name: UniProt Q9UL62
Sequence (Q9UL62 whole entry): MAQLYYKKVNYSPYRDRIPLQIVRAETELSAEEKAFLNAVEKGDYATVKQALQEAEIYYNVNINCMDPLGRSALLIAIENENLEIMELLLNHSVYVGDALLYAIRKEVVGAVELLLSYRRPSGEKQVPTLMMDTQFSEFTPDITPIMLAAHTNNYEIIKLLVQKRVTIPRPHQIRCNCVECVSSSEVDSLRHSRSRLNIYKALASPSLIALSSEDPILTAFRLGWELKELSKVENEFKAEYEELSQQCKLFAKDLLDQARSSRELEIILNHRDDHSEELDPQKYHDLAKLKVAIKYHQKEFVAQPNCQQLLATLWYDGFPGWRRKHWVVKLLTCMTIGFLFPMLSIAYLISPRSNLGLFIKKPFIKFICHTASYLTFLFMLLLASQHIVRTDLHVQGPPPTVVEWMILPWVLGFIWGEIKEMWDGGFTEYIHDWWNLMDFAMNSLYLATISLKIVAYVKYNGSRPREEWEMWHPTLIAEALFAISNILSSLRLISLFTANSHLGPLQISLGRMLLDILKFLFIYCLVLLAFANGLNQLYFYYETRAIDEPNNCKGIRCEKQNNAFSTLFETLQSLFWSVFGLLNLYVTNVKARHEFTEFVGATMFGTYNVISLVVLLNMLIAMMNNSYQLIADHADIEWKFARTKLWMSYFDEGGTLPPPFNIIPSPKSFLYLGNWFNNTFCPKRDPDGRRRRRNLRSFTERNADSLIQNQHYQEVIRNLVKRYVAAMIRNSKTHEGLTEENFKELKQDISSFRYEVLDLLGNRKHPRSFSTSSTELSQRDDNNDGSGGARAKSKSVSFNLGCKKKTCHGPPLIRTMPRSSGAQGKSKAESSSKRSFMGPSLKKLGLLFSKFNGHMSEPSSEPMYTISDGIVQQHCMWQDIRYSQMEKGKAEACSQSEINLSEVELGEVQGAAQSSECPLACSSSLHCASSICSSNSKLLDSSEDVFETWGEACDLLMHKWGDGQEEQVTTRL
pIC50: −log10 of the molar value.
metric: pIC50

Ask: Which measured pIC50 value corresponds to N#Cc1ccc(O[C@H]2CN(S(=O)(=O)c3ccc(Cl)cc3Cl)C[C@@]2(O)CO)cc1F ?
Result: < 5.00
